- test_details: viability profiling in MM1S myeloma cells – cell-based, resazurin fluorescence, basal, 24 h, PK04 Diversity Set, profiling panel (AID 1174);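 note: MM1S multiple myeloma cell line; test concentration not given here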
- experimental_context: higher = more signal, called active from +8 up or from −8 down
readout_type: z-score
Give only the figure.

{"smiles_notation": "CCOC(=O)C1=CC[C@@H](c2cccc(Br)c2)N(S(=O)(=O)c2ccc(C)cc2)[C@H]1c1ccc([N+](=O)[O-])cc1", "readout_type": "z-score", "test_value": -0.343}

Need z-score, item COc1ccc(C(=O)Nc2ccc(CN3C(=O)[C@]4(O[C@H](CCn5cc([C@H](O)c6ccccc6)nn5)[C@@H]([Si](C)(C)c5ccc(OC)cc5)[C@@H]4C)c4ccccc43)cc2)cc1
-3.17

Input C[C@@H]1ON(c2ccccc2)[C@H](c2ccccc2)[C@H]1C(=O)N1C(=O)OC[C@H]1Cc1ccccc1
0.962

What about this compound? C=C(/C(=C/C[C@@H](OC(=O)c1ccncc1)c1cccc(OCCO)c1)c1cc(C(=O)OC)ccc1OC)C(C)C
-0.261

Further, for COCCCNC(=O)[C@@]1(Cc2ccccc2N=[N+]=[N-])N=C(c2ccc(OCCCO)cc2)O[C@H]1c1ccccc1CN=[N+]=[N-] ?
-1.2

Then COC(=O)[C@@]1(Cc2ccc(F)cc2)[C@H]2c3cc(C(=O)N(C)C)n(CCSCCO)c3C[C@H]2CN1C(=O)c1ccccc1 ?
-0.42

Repeat for the following compound: [N-]=[N+]=Nc1ccccc1[C@@H]1OC(c2ccc(OCCCO)cc2)=N[C@]1(CCS(=O)(=O)c1ccccc1)C(=O)NCc1ccccc1
-0.37

The measurements presented in this section are drawn from PubChem BioAssay.
